system: 5HT3 receptor (Rattus norvegicus, UniProt P35563)
Sequence (P35563 24-483): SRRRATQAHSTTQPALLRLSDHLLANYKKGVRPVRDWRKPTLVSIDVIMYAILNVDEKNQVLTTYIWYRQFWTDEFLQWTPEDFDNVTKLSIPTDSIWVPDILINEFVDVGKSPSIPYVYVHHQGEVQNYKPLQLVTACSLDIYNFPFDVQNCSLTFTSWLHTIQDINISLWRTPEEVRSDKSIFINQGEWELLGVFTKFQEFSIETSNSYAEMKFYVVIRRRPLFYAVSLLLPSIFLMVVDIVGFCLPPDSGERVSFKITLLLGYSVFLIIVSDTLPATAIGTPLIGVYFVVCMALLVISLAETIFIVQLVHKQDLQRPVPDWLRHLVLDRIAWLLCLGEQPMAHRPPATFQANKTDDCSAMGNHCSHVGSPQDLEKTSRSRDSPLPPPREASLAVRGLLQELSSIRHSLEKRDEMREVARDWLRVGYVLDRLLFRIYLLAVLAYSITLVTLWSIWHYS
assay_name: biochemical
Format: binding, rat (male Wistar, entorhinal cortex)
condition_context: [3H]-GR65630 0.4 nM, rat entorhinal cortex; read-out: B: 5HT3 receptor binding, IC50
IC50 values for the compounds below.

compound	IC50, µM
c1ccc2c(Nc3ccncc3)c[nH]c2c1 [3-(4-pyridinylamino)-1H-indole]	5.5
CCCN(c1ccncc1)c1csc2cc(Cl)ccc12.Cl [hydrochloride]	2.6

###

system: MAO-A (Rattus norvegicus)
Sequence (P21396 whole entry): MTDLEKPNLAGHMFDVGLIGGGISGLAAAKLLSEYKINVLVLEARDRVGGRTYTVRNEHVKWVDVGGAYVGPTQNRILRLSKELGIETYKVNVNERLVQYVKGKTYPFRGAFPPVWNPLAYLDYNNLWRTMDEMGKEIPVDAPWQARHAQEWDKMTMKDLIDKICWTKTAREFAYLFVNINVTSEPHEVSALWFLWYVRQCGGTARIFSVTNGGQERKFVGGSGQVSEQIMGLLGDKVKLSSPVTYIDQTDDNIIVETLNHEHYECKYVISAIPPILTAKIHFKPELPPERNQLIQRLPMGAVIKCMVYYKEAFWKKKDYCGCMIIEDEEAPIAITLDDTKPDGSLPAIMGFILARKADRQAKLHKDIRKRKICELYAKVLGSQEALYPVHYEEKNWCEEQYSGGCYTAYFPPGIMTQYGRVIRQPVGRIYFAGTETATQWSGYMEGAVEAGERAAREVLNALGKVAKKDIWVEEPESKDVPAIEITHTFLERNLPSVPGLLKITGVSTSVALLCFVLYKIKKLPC
assay_name: biochemical
condition_context: substrate [3H]-5HT 200 μM; read-out: Inhibitory Concentration - IC50 MAO-A
Where a name gives a salt, the structure may show the parent alone.
measured_parameter: IC50 (µM)

compound	measured_parameter	units	measurement
Clc1ccc2c(Nc3ccncc3)noc2c1 [maleate]	IC50	µM	2.8
FC(F)(F)c1ccc2c(Nc3ccncc3)csc2c1 [hydrochloride]	IC50	µM	60
c1ccc2c(Nc3ccncc3)csc2c1 [hydrochloride]	IC50	µM	5.3
COc1ccc2c(Nc3ccncc3)csc2c1 [hydrochloride]	IC50	µM	3.2

// provenance: patent US6022880A
